- System: rat trachea rings
- assay_comment: Measurement of isometric force development: constriction of rat trachea rings
- particulars: Rattus norvegicus, read-out: % trachea constriction at 1 μM
Entries annotated with measured activation at 1 µM
The figure you give is taken to be in %; do not add the unit.

A selection of reference data follows.
>>> test_result("COc1cc(-c2nc(-c3cc(C)c(OCC(=O)O)c(Cl)c3)no2)cc(C2CCCC2)n1 [Example 41]")
120
>>> test_result("COc1cc(-c2nc(-c3cc(Cl)c(OCCCC(=O)O)c(OC)c3)no2)cc(C2CCCC2)n1 [Example 35]")
108

Switching to the query record.
## Task Supply recorded activation at 1 µM for CCc1cc(-c2noc(-c3cc(OC)nc(C4CCCC4)c3)n2)cc(C)c1OCCNCC(=O)O [Example 7] here.
## Result 68

---

Entries annotated with measured log10(EC50)
- subject_of_test: human S1P1 (EDG1) receptor (Homo sapiens)
- Sequence (P21453 whole entry): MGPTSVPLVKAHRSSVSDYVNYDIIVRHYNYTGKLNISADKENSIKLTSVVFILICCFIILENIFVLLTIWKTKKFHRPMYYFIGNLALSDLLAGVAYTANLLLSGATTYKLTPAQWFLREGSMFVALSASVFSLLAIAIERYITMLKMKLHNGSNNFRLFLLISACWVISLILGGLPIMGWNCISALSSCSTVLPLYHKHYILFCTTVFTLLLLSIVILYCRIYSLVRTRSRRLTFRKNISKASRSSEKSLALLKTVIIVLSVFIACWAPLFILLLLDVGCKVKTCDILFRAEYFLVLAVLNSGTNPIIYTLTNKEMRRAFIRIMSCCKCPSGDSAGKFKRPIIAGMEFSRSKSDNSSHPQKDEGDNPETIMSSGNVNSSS
- assay_comment: S1P1 β-arrestin recruitment (Tango) assay to determine EC50 values
- particulars: Tango-EDG1 bla U2OS cells, 16 h incubation
Hey, these are logged values: log10 of EC50, nM being the unit before logging.

## Task Supply recorded log10(EC50) for CCc1cc(-c2nnc(-c3cc(OC)nc(C4CCCC4)c3)o2)cc(C)c1OC[C@@H](O)CNCCO here.
## Result 0.48

## Task Supply recorded log10(EC50) for CCc1cc(-c2noc(-c3cc(OC)nc(C4CCCC4)c3)n2)cc(C)c1OCCCN(C)CC(=O)O here.
## Result 0.18

## Task Supply recorded log10(EC50) for CCc1cc(-c2noc(-c3cc(OC)nc(C4CCCC4)c3)n2)cc(C)c1OCCCNCCO here.
## Result 1.84

## Task Supply recorded log10(EC50) for COc1cc(-c2nc(-c3cc(Cl)c(OCCCC(=O)NCCO)c(OC)c3)no2)cc(C2CCCC2)n1 here.
## Result 0.23

## Task Supply recorded log10(EC50) for CCc1cc(-c2noc(-c3cc(OC)nc(C4CCCC4)c3)n2)cc(C)c1OC[C@@H](O)CNC(CO)CO here.
## Result 0.82

## Task Supply recorded log10(EC50) for CCc1cc(-c2nc(-c3cc(OC)nc(C4CCCC4)c3)no2)cc(C)c1OCCN(C)CC(=O)O here.
## Result -1.00

## Task Supply recorded log10(EC50) for CCc1cc(-c2noc(-c3cc(OC)nc(C4CCCC4)c3)n2)cc(C)c1OCCCN(C)C(=O)CO here.
## Result 0.90

## Task Supply recorded log10(EC50) for CCc1cc(-c2noc(-c3cc(OC)nc(C4CCCC4)c3)n2)cc(C)c1OCCCNC(=O)CO here.
## Result -0.58

## Task Supply recorded log10(EC50) for CCc1cc(-c2noc(-c3cc(OC)nc(C4CCCC4)c3)n2)cc(C)c1OCCNCCC(=O)O here.
## Result -1.40

## Task Supply recorded log10(EC50) for CCc1cc(-c2noc(-c3cc(OC)nc(C4CCCC4)c3)n2)cc(C)c1OCCCC(=O)O here.
## Result -0.70

## Task Supply recorded log10(EC50) for CCc1cc(-c2nnc(-c3cc(OC)nc(C4CCCC4)c3)o2)cc(C)c1OC[C@@H](O)CNC(=O)CCC(=O)O here.
## Result -1.30

## Task Supply recorded log10(EC50) for CCc1cc(-c2noc(-c3cc(OC)nc(C4CCCC4)c3)n2)cc(C)c1OC[C@@H](O)CN1CC(C(=O)O)C1 here.
## Result -0.52

## Task Supply recorded log10(EC50) for CCc1cc(-c2noc(-c3cc(OC)nc(C4CCCC4)c3)n2)cc(C)c1OCCNCC(=O)O here.
## Result 0.18

## Task Supply recorded log10(EC50) for CCc1cc(-c2noc(-c3cc(OC)nc(C4CCCC4)c3)n2)cc(C)c1OC[C@@H](O)CNCC(=O)O here.
## Result -1.15

## Task Supply recorded log10(EC50) for CCc1cc(-c2nnc(-c3cc(OC)nc(C4CCCC4)c3)o2)cc(C)c1OCCN1CC(C(=O)O)C1 here.
## Result 0.04

## Task Supply recorded log10(EC50) for CCc1cc(-c2noc(-c3cc(OC)nc(C4CCCC4)c3)n2)cc(C)c1OCCCNC(CO)CO here.
## Result 1.18

## Task Supply recorded log10(EC50) for CCc1cc(-c2nc(-c3cc(OC)nc(C4CCCC4)c3)no2)cc(C)c1OCCNCCC(=O)O here.
## Result -1.30
